PARTICULARS: in acetone, 288.15 K
RECORDED ENDPOINT: solubility (mole fraction)

### Prompt Which solubility (mole fraction) is reported for this compound? "Cc1cccc([N+](=O)[O-])c1N"
### Response 0.153

---

PARTICULARS: in acetone, 300.65 K
RECORDED ENDPOINT: solubility (mole fraction)
Give the figure only, with no unit attached.

### Prompt Form field: reported solubility (mole fraction) of "Cc1cccc([N+](=O)[O-])c1N"
### Response 0.217

---

PARTICULARS: in ethyl acetate, 283.15 K
RECORDED ENDPOINT: solubility (mole fraction)
Hey, just send me the number, nothing else.

### Prompt Return reported solubility (mole fraction); argument: "Cc1cccc([N+](=O)[O-])c1N"
### Response 0.101

---

PARTICULARS: in ethanol, 278.15 K
RECORDED ENDPOINT: solubility (mole fraction)
Returns: the value as a bare number; no unit string appended.

### Prompt For the molecule "Cc1cccc([N+](=O)[O-])c1N" , what solubility (mole fraction) is on record?
### Response 0.0102

---

PARTICULARS: in acetone, 293.15 K
RECORDED ENDPOINT: solubility (mole fraction)

### Prompt I would be grateful if you could share the reported solubility (mole fraction) for "Cc1cccc([N+](=O)[O-])c1N" .
### Response 0.177

---

PARTICULARS: in acetonitrile, 298.15 K
RECORDED ENDPOINT: solubility (mole fraction)
Answer using only a numeral; do not append any unit.

### Prompt // lookup solubility (mole fraction) for "Cc1cccc([N+](=O)[O-])c1N"
### Response 0.106

---

PARTICULARS: in n-propanol, 310.65 K
RECORDED ENDPOINT: solubility (mole fraction)
Respond with the number and no other words.

### Prompt Please look up its solubility (mole fraction): "Cc1cccc([N+](=O)[O-])c1N"
### Response 0.041

---

PARTICULARS: in ethanol, 303.15 K
RECORDED ENDPOINT: solubility (mole fraction)
Lab note: jot down the number only; don't add units.

### Prompt Given the entry "Cc1cccc([N+](=O)[O-])c1N" , report its measured solubility (mole fraction).
### Response 0.0284

---

PARTICULARS: in 1,4-dioxane, 285.65 K
RECORDED ENDPOINT: solubility (mole fraction)
Keep it simple and answer with nothing but the number.

### Prompt Request the reported solubility (mole fraction) associated with "Cc1cccc([N+](=O)[O-])c1N"
### Response 0.19

---

PARTICULARS: in acetone, 295.65 K
RECORDED ENDPOINT: solubility (mole fraction)
Give the figure by itself; no unit, no explanation.

### Prompt Fill blank: measured solubility (mole fraction) of the molecule "Cc1cccc([N+](=O)[O-])c1N" is ____.
### Response 0.19

---

PARTICULARS: in n-propanol, 308.15 K
RECORDED ENDPOINT: solubility (mole fraction)

### Prompt // solubility (mole fraction) lookup, key: "Cc1cccc([N+](=O)[O-])c1N"
### Response 0.0371

---

PARTICULARS: in n-propanol, 288.15 K
RECORDED ENDPOINT: solubility (mole fraction)
Respond using a number only.

### Prompt Data request, read-out solubility (mole fraction), for "Cc1cccc([N+](=O)[O-])c1N"
### Response 0.0165

Value source: BigSolDB 2.1
